# inhibition in vivo at 100 mg/kg per entry
system: reverse passive Arthus reaction; assay: reverse passive Arthus reaction test in rats (anti-inflammatory effect, oral); format: in vivo, rat (male Sprague-Dawley); conditions: 4 h; oral dose 100 mg/kg, rat; read-out: Percent Inhibition of Arthus Reaction
Enter your answer as a number in %; do not include the unit.

>>> recorded_measurement("c1ccc(-c2cc(NC3=NCCN3)n(-c3ccccc3)n2)cc1")
32

Proceeding to the next molecule to report its inhibition in vivo at 100 mg/kg.
get_value(item= `Cc1cc(NC2=NCCN2)n(C(C)C)n1` , readout=inhibition in vivo at 100 mg/kg) returns 29

----------
# inhibition in vivo at 100 mg/kg per record follows
system: reverse passive Arthus reaction; test: reverse passive Arthus reaction test in rats (anti-inflammatory effect, oral); type: in vivo, rat (male Sprague-Dawley); conditions: 4 h; oral dose 100 mg/kg, rat; read-out: Percent Inhibition of Arthus Reaction
Where a name gives a salt, the structure may show the parent alone.
// return numeric value only (unit: %, not printed)

>>> recorded_measurement("Brc1c(-c2ccccc2)nn(-c2ccccc2)c1NC1=NCCN1 [R1=C6H5, R2=C6H5, R3=Br, R4=H, hydrobromide]")
17
>>> recorded_measurement("Brc1cnn(C2CCCCC2)c1NC1=NCCN1 [R1=drawing 4, R2=H, R3=Br, R4=H, hydrochloride]")
15
>>> recorded_measurement("CC(=O)N1CCN=C1Nc1cc(C)nn1C(C)C")
39
>>> recorded_measurement("Cc1nn(C)c(NC2=NCCN2)c1I")
43
>>> recorded_measurement("Cc1cc(NC2=NCCN2)n(C)n1")
55
>>> recorded_measurement("CC(=O)N1CCN=C1Nc1c(C)nn(C)c1Cl [R1=Me, R2=Me, R3=(5) C1, R4=COCH3, hydrochloride]")
63

Switching to the query record.
Known value: reverse passive Arthus reaction inhibition in vivo at 100 mg/kg of the compound Brc1cnn(-c2ccccc2)c1NC1=NCCN1 [R1=C6H5, R2=H, R3=Br, R4=H, hydrochloride] equals 59

----------
test system: reverse passive Arthus reaction; experiment: reverse passive Arthus reaction test in rats (anti-inflammatory effect, oral); type: in vivo, rat (male Sprague-Dawley); conditions: 4 h; oral dose 100 mg/kg, rat; read-out: Percent Inhibition of Arthus Reaction
Where a name gives a salt, the structure may show the parent alone.
Outcome: MET for inhibition in vivo at 100 mg/kg of at least 20%; NOT MET for anything lower.

# check: inhibition in vivo at 100 mg/kg of `c1ccc(-n2nccc2NC2=NCCN2)cc1` is greater than or equal to 20%
MET

Does inhibition in vivo at 100 mg/kg meet or surpass 20% for `CC(=O)N1CCN=C1Nc1cc(C(C)C)nn1C` ?
NOT MET

Check if inhibition in vivo at 100 mg/kg >= 20% (inclusive). Item: `CC(=O)N1CCN=C1Nc1ccnn1-c1ccccc1`
MET

inhibition in vivo at 100 mg/kg >= 20% for c1cc(NC2=NCCN2)n(C2CCCCC2)n1 [R1=drawing 5, R2=H, R3=H, R4=H] ?
NOT MET

Exam item: decide whether the reported inhibition in vivo at 100 mg/kg for `CC(C)c1cc(NC2=NCCN2)n(C(C)C)n1` is at least 20%.
NOT MET

Dear colleague, could you confirm whether Cc1nn(C)c(Cl)c1NC1=NCCN1 [R1=Me, R2=Me, R3=(5) (C1), R4=H, hydrochloride] has inhibition in vivo at 100 mg/kg at or above 20%?
MET

inhibition in vivo at 100 mg/kg >= 20% for `CC(C)c1cc(NC2=NCCN2)n(C)n1` ?
MET
